Values compiled from patent US9676721B2.

Biological target: UniProtKB P43490
Assay: Biochemical Inhibition Assay (NAMPT enzymatic reaction, NMN by mass spectrometry)
Settings: recombinant His-tagged NAMPT 33 nM, 1 μM NAM, 30 minutes; read-out: Biochem IC50
So basically: is IC50 under 4 nM? Then 1. Not under? Then 0.

Completed entries (count: 5):
1. Cc1ccc(S(=O)(=O)c2ccc(CNC(=NC#N)Nc3ccncc3)cc2)cn1 = 1
2. N#CN=C(NCc1ccc(S(=O)(=O)c2cccc(-n3cccn3)c2)cc1)Nc1ccncc1 = 1
3. COc1cc(C(F)(F)F)ccc1S(=O)(=O)c1ccc(CNC(=NC#N)Nc2ccncc2)cc1 = 0
4. COCc1cccc(S(=O)(=O)c2ccc(CNC(=NC#N)Nc3ccncc3)cc2)c1 = 0
5. CCOc1ccccc1S(=O)(=O)c1ccc(CNC(=NC#N)Nc2ccncc2)cc1 = 0

Let us examine a further case.
Prompt line: Given "CN(C)C(=O)c1cccc(S(=O)(=O)c2ccc(CNC(=NC#N)Nc3ccncc3)cc2)c1" , is recorded IC50 strictly lower than 4 nM?
Response line: 1

---

Tested on: A2780 cells
Experiment: In-Vitro Cell Proliferation Assay (SRB)
Assay type: cell-based
Conditions: Homo sapiens, A2780, 72 h
pIC50: −log10 of the molar value.
Binary call on pIC50: MET from 8 upward, NOT MET beneath that.

1) N#C/N=C(\NCc1ccc(S(=O)(=O)c2cccc(Cl)c2)cc1)Nc1ccncc1 = MET
2) Cn1c(S(=O)(=O)c2ccc(CNC(=NC#N)Nc3ccncc3)cc2)cc2ccccc21 = MET
3) N#CN=C(NCc1ccc(S(=O)(=O)c2cc(Cl)cc(C(F)(F)F)c2)cc1)Nc1ccncc1 = MET
4) CCNC(=O)c1ccc(S(=O)(=O)c2ccc(CNC(=NC#N)Nc3ccncc3)cc2)cc1 = NOT MET
5) N#C/N=C(\NCc1ccc(S(=O)(=O)c2ccc(N3CCOCC3)cc2)cc1)Nc1ccncc1 = MET

Shifting focus to the molecule that follows.
Prompt line: Check if pIC50 >= 8 (inclusive). Item: "Cc1cc(F)cc(S(=O)(=O)c2ccc(CN/C(=N\C#N)Nc3ccncc3)cc2)c1"
Response line: MET

---

Biological target: NAMPT (Homo sapiens (Human), UniProt P43490)
Sequence (P43490 whole entry): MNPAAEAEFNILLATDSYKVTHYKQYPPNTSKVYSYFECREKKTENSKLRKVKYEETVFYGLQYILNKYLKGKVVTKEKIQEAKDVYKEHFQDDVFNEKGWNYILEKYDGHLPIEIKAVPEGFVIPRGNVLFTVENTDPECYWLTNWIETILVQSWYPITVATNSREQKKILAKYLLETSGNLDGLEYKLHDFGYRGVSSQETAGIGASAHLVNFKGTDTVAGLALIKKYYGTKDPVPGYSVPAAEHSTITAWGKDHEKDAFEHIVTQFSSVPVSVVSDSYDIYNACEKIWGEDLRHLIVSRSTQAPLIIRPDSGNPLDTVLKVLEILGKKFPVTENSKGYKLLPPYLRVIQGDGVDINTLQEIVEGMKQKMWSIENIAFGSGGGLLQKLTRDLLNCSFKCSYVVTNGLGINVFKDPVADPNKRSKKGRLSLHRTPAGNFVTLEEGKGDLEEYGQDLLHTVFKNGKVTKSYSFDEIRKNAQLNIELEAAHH
Test: Biochemical Inhibition Assay (NAMPT enzymatic reaction, NMN by mass spectrometry)
Details: recombinant His-tagged NAMPT 33 nM, 1 μM NAM, 30 minutes; read-out: Biochem IC50
attribute-measured: IC50 (nM)
Numbers only, in nM.

Answered cases to consult:
1) N#C/N=C(\NCc1ccc(S(=O)(=O)c2ccc(-c3ccccc3)cc2)cc1)Nc1ccncc1 [2-cyano-1-({4-[(4-phenylbenzene)sulfonyl]phenyl}methyl)-3-(p] = 3.5
2) CCS(=O)(=O)c1cccc(S(=O)(=O)c2ccc(CNC(=NC#N)Nc3ccncc3)cc2)c1 = 1.8
3) Cc1ccncc1S(=O)(=O)c1ccc(CNC(=NC#N)Nc2ccncc2)cc1 = 2.3

I have 6 compounds here; please give me IC50 for each one.
1. COc1ccc(S(=O)(=O)c2ccc(CNC(=NC#N)Nc3ccncc3)cc2)cc1OC
2. N#CN=C(NCc1ccc(S(=O)(=O)c2cccc3ccccc23)cc1)Nc1ccncc1
3. N#CN=C(NCc1ccc(S(=O)(=O)c2cc(Cl)cc(Cl)c2)cc1)Nc1ccncc1
4. Cc1ncccc1S(=O)(=O)c1ccc(CNC(=NC#N)Nc2ccncc2)cc1
5. Cc1ccc(S(=O)(=O)c2ccc(CNC(=NC#N)Nc3ccncc3)cc2)cc1F
6. N#C/N=C(\NCCc1ccc(S(=O)(=O)c2ccccc2)cc1)Nc1ccncc1

Response line:
1: 4; 2: 3.8; 3: 11.2; 4: 4.8; 5: 14.8; 6: 1

---

Target: NAMPT (Homo sapiens (Human), UniProt P43490)
Experiment: Biochemical Inhibition Assay (NAMPT enzymatic reaction, NMN by mass spectrometry)
Settings: recombinant His-tagged NAMPT 33 nM, 1 μM NAM, 30 minutes; read-out: Biochem IC50
Label scheme for IC50: lower level = under 3 nM, middle level = from 3 nM up to 5 nM, upper level = 5 nM and over

Take a look at these entries with their results.
1. Cc1cc(Cl)cc(S(=O)(=O)c2ccc(CNC(=NC#N)Nc3ccncc3)cc2)c1 = middle level
2. COc1ccc(S(=O)(=O)c2ccc(CNC(=NC#N)Nc3ccncc3)cc2)cc1F = lower level
3. CCOc1ccc(S(=O)(=O)c2ccc(CNC(=NC#N)Nc3ccncc3)cc2)cc1F = upper level
4. COc1cccc(S(=O)(=O)c2ccc(CNC(=NC#N)Nc3ccncc3)cc2)c1 = lower level
5. N#CN=C(NCc1ccc(S(=O)(=O)c2cc(F)cc(OCC(F)(F)F)c2)cc1)Nc1ccncc1 = upper level

Prompt line: # bin label for "N#CN=C(NCc1ccc(S(=O)(=O)c2ccc(C(=O)N3CCCC3)cc2)cc1)Nc1ccncc1"
Response line: middle level

Prompt line: Moving on to "CCCS(=O)(=O)Nc1cccc(S(=O)(=O)c2ccc(CNC(=NC#N)Nc3ccncc3)cc2)c1"
Response line: lower level

Prompt line: Check "COc1ccc(S(=O)(=O)c2ccc(CNC(=NC#N)Nc3ccncc3)cc2)c(OC)n1" too.
Response line: upper level

Prompt line: Another: "N#C/N=C(\NCc1ccc(S(=O)(=O)c2cccc(Cl)c2)cc1)Nc1ccncc1"
Response line: lower level

Prompt line: Also check "N#CN=C(NCc1ccc(S(=O)(=O)c2cc(Cl)cc(C(F)(F)F)c2)cc1)Nc1ccncc1"
Response line: middle level

---

Tested on: A2780 cells
Assay: In-Vitro Cell Proliferation Assay (SRB)
Format: cell-based
Settings: Homo sapiens, A2780, 72 h
attribute-measured: IC50 (nM)
Answers are plain numbers, in nM.

// known answers, use as guide
1) N#CN=C(NCc1ccc(S(=O)(=O)c2cc(F)cc(OCC(F)(F)F)c2)cc1)Nc1ccncc1 = 1.9
2) Cc1ccc(F)cc1S(=O)(=O)c1ccc(CNC(=NC#N)Nc2ccncc2)cc1 = 3.3
3) Cn1ncc2ccc(S(=O)(=O)c3ccc(CN/C(=N\C#N)Nc4ccncc4)cc3)cc21 = 1.6
4) N#CN=C(NCc1ccc(S(=O)(=O)c2cccc(C(=O)NC3CCCC3)c2)cc1)Nc1ccncc1 = 28.3

Please supply IC50 for each of the following items, keeping them in order.
1. COc1ccccc1S(=O)(=O)c1ccc(CNC(=NC#N)Nc2ccncc2)cc1
2. N#CN=C(NCc1ccc(S(=O)(=O)c2ccc(-n3cccn3)cc2)cc1)Nc1ccncc1
3. N#CN=C(NCc1ccc(S(=O)(=O)c2cccc3ccccc23)cc1)Nc1ccncc1
4. N#C/N=C(/NCc1cccnc1)Nc1ccc(S(=O)(=O)c2ccccc2)cc1
5. N#CN=C(NCc1ccc(S(=O)(=O)c2cccc(C(F)(F)F)c2)cc1)Nc1ccncc1

Response line:
[3.9, 3.4, 3, 2710, 1.2]

---

For each entry below, report its IC50 value.
Molecular target: NAMPT (Homo sapiens (Human))
Test: Biochemical Inhibition Assay (NAMPT enzymatic reaction, NMN by mass spectrometry)
Settings: recombinant His-tagged NAMPT 33 nM, 1 μM NAM, 30 minutes; read-out: Biochem IC50
Description: Biochemical Inhibition Assay NAMPT Protein Purification Recombinant His-tagged NAMPT was produced in E. coli cells, purified over a Ni column, and further purified over a size-exclusion column by XTAL Biostructures. […] Background and signal strength was determined by addition (or non-addition) of a serial dilution of NMN to a pre-quenched enzyme and cofactor mix. […] NMN and L-Cystathionine were detected using the services of Biocius Lifesciences with the RapidFire system. […]
Give bare numbers, in nM.

Use the examples below as a reference point.
1) Cc1ccccc1S(=O)(=O)c1ccc(CNC(=NC#N)Nc2ccncc2)cc1 = 7.9
2) N#CN=C(NCc1ccc(S(=O)(=O)c2ccc3c(c2)OCO3)cc1)Nc1ccncc1 = 1.8
3) N#CN=C(NCc1ccc(S(=O)(=O)c2ccc(C(F)(F)F)cc2)cc1)Nc1ccncc1 = 16.3
4) CC(C)NC(=O)c1cccc(S(=O)(=O)c2ccc(CNC(=NC#N)Nc3ccncc3)cc2)c1 = 4.3
5) Cc1ccc(F)cc1S(=O)(=O)c1ccc(CNC(=NC#N)Nc2ccncc2)cc1 = 4.5
6) Cc1cc(F)cc(S(=O)(=O)c2ccc(CN/C(=N\C#N)Nc3ccncc3)cc2)c1 = 1.7
7) N#C/N=C(\NCc1ccc(S(=O)(=O)c2cccnc2)cc1)Nc1ccncc1 = 20.7
8) COc1cncc(S(=O)(=O)c2ccc(CNC(=NC#N)Nc3ccncc3)cc2)c1 = 4.3

For every listed record, write down its IC50.
1. N#C/N=C(\NCc1ccc(S(=O)(=O)c2ccccc2)cc1)Nc1ccncc1
2. CCOc1cccc(S(=O)(=O)c2ccc(CNC(=NC#N)Nc3ccncc3)cc2)c1

Response line:
1: 2; 2: 4.3

---

I'd be grateful if you could share measured pIC50 for these entries.
System: A2780 cells
Test: In-Vitro Cell Proliferation Assay (SRB)
Format: cell-based
Settings: Homo sapiens, A2780, 72 h
Protocol: In-Vitro Cell Proliferation Assay […] After overnight incubation at 37° C. and 5% CO2, the compound titrations were performed in a separate dilution plate by serially diluting the compounds in DMSO to make a 1000× stock. […] The number of viable cells was then assessed using sulforhodamine B (SRB) assay. […] The plates were then read in a microplate reader at an absorbance of 570 nm. […] Percent inhibitions were determined using the method given above.
Numbers only, as −log10 of the molar value.

1. N#CN=C(NCc1ccc(S(=O)(=O)c2ccccc2CN2CCOCC2)cc1)Nc1ccncc1 = 8.12
2. N#CN=C(NCc1ccc(S(=O)(=O)c2cc(F)cc(C(F)(F)F)c2)cc1)Nc1ccncc1 = 8.82
3. Cc1cc(C)cc(S(=O)(=O)c2ccc(CNC(=NC#N)Nc3ccncc3)cc2)c1 = 8.80
4. N#CN=C(NCc1ccc(S(=O)(=O)c2cc(Cl)cc(Cl)c2)cc1)Nc1ccncc1 = 8.80

Prompt line: Return reported pIC50; argument: "COc1ccc(S(=O)(=O)c2ccc(CNC(=NC#N)Nc3ccncc3)cc2)cc1F"
Response line: 8.70
